endpoint name: IC50

Quote Substance-P receptor (Homo sapiens, UniProt P25103) IC50 for entry CC(=O)NC(Cc1c[nH]c2ccccc12)C(=O)N(C)Cc1ccccc1 (stereo unspecified) .
750 nM

###

Entries with their measured pKi, system Substance-P receptor (Homo sapiens, UniProt P25103):
Recall that pKi is obtained by taking minus log10 of the concentration measured in molar.

// Input: CC1c2ccccc2NC(=O)CN1C(=O)N(C)Cc1cc(C(F)(F)F)cc(C(F)(F)F)c1 (stereo not drawn) . Output its pKi only.
7.50

// Input: CN(Cc1cc(C(F)(F)F)cc(C(F)(F)F)c1)C(=O)N1CC(=O)Nc2ccccc2C1CN1CCOCC1 (stereo not drawn) . Output its pKi only.
6.10

// Input: COC(=O)C1c2ccccc2NC(=O)CN1C(=O)N(C)Cc1cc(C(F)(F)F)cc(C(F)(F)F)c1 (stereo not drawn) . Output its pKi only.
6.50

Data credit: ChEMBL document CHEMBL1153648
